# kon values compiled below
- Measured Target: T1, extracellular domain of the human leptin receptor (human, UniProt P48357 22-839)
- T1 construct: extracellular domain; It is treated as one construct; a tag is not mentioned for the ELISA and cross-linking experiments; also called hECD; recombinant leptin receptor extracellular domain
- T1 sequence (looked up): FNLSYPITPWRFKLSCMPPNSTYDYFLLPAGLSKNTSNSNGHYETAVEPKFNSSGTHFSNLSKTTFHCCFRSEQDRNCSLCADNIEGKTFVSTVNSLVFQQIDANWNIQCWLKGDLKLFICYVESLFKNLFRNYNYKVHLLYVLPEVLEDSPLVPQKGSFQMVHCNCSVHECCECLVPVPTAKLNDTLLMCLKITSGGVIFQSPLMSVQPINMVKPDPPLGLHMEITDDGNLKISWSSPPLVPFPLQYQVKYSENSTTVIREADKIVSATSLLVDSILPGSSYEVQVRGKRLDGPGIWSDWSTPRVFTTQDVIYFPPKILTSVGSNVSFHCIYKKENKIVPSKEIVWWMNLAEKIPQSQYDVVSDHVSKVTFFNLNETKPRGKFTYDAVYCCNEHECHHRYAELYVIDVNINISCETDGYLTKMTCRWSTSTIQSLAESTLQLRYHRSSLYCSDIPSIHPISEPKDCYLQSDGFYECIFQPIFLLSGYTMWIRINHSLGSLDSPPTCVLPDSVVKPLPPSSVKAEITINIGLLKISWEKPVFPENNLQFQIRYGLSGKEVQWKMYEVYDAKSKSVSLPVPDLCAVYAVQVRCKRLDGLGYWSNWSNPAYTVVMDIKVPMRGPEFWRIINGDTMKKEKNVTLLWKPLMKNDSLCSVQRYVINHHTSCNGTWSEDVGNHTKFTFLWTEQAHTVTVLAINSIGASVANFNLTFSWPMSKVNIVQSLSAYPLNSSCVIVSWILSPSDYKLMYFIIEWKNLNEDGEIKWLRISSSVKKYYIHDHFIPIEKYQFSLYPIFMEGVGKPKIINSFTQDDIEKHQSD
- Assay Procedure: SPR; leptin receptor ECD immobilized, antibody as analyte
Value Kind: kon (M⁻¹ s⁻¹)

[[record]]
binder = "S2H5 (antibody, V domains shown, also called SC2H5) VH: QVQLLQSGGGVVQPGRSLRLSCAASGFTFSSYGMHWVRQAPGKGLEWVAVISYDGSNKYYADSVKGRFTISRDNSKNTLYLQMNSLRAEDTAVYYCASRYENYFSLWGQGTLVTVSS VL: EIVLTQSPGTLSLSPGERATLSCRASQSVSSNYLAWYQQKPGQAPRLLIYGASSRPTGIPDRFSGSGSGTDFTLTISRLEPEDFAVYYCQQYAASPLTFGGGTKLEIK"
value_kind = "kon"
test_result = 262000

[[record]]
binder = "S2H3 (antibody, V domains shown, also called SC2H3) VH: QVQLLQSGGGVVQPGRSLRLSCAASGFTFSSYGMHWVRQAPGKGLEWVAVISYDGSNKYYADSVKGRFTISRDNSKNTLYLQMNSLRAEDTAVYYCAGVRENYFTYWGQGTLVTVSS VL: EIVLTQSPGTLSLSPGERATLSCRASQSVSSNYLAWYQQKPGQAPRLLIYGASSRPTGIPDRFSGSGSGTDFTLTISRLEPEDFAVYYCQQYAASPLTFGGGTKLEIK"
value_kind = "kon"
test_result = 466000


This collection of values is drawn from patent US20220275097A1.
